// provenance: patent US10703765B2

- ASSAYED_TARGET: human σ1 receptor (Homo sapiens, UniProt Q99720)
- Sequence (Q99720 whole entry): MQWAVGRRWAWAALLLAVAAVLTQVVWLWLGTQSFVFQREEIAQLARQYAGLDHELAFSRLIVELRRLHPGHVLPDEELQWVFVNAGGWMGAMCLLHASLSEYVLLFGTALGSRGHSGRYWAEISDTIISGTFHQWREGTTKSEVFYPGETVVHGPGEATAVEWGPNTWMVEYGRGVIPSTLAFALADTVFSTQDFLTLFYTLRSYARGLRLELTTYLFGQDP
- ASSAY_SUMMARY: biochemical
- Assay type: binding
- TEST_CONDITIONS: read-out: μ and σ1 dual binding
pKi: −log10 of the molar value. Where a name gives a salt, the structure may show the parent alone.
MEASURE: pKi

Below are worked cases with known answers.
CS(=O)(=O)Nc1cccc(CN2CC3(CCN(CCc4ccccc4)CC3)OCC2=O)c1 [Example 259, hydrochloride] ... < 6.30
O=C1N(c2ncccc2C(F)(F)F)CC2(CCN(CCc3cc(F)ccc3F)CC2)OC12CC2 [Example 343] ... > 6.30
CC1OC2(CCN(CCc3cccnc3[N+](=O)[O-])CC2)CN(c2ccccc2)C1=O (stereo not shown) [Example 27] ... < 6.30

The measured pKi associated with O=C1COC2(CCN(CCc3ccccc3)CC2)CN1c1cccc(O)c1 [Example 288] reads > 6.30
